Measured on: BCR fusion to kinase domain of MerTK (Ba/F3-MerTK) (Homo sapiens)
Sequence (Q12866 21-999 limits assumed, change not shown): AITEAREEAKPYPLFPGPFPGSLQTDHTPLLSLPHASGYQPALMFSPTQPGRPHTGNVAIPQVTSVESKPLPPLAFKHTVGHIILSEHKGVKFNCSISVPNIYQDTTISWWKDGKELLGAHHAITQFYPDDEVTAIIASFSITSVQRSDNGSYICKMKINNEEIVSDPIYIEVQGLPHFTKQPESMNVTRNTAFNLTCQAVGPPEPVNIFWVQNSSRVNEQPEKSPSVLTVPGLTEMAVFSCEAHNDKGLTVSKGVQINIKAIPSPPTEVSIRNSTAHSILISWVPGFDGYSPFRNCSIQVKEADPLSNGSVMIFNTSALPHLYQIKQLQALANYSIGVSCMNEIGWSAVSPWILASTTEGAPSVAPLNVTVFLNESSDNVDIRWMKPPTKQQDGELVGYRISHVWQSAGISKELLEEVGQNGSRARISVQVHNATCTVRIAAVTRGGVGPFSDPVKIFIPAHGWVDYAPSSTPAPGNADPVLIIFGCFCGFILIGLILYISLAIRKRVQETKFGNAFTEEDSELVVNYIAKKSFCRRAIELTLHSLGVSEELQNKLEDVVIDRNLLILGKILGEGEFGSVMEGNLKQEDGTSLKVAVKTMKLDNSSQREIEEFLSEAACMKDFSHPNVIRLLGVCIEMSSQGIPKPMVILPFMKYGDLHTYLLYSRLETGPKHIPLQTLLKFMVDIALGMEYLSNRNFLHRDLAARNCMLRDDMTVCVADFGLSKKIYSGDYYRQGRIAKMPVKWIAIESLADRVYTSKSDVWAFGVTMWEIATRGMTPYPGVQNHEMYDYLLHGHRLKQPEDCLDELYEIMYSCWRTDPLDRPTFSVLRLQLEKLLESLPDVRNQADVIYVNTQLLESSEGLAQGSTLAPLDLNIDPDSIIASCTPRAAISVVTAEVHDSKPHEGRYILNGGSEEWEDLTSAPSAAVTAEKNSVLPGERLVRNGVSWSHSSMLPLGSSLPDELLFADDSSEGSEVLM
Method: In Cell TAM Kinase Assay Using BaF3 Cellular System
Assay type: cell-based, murine
Experimental conditions: Ba/F3 BCR-kinase fusion proliferation, 72 hours, Cell Titer Glo; kinase not given; read-out: IC50
pIC50: −log10 of the molar value.
Measured quantity: pIC50

Compound structure string: CN1CCC(COc2ccc3cc(C(=O)N4CC[C@@H](NC(=O)c5cc(-c6cnn(C)c6)cnc5N)C4)ccc3c2)CC1
Measured on: BCR fusion to kinase domain of MerTK (Ba/F3-MerTK) (Homo sapiens)
Recorded result: < 6.00
--
Compound structure string: Cn1cc(-c2cnc(N)c(C(=O)N[C@@H]3CCN(C(=O)c4c[nH]c(=O)n(-c5ccc(F)cc5)c4=O)C3)c2)cn1
Measured on: BCR fusion to kinase domain of MerTK (Ba/F3-MerTK) (Homo sapiens)
Recorded result: < 6.00
--
Compound structure string: Cn1cc(-c2cnc(N)c(C(=O)N[C@@H]3CCN(C(=O)c4ccc(-c5ccc(Oc6ccc(N)cc6)cc5)cc4)C3)c2)cn1
Measured on: BCR fusion to kinase domain of MerTK (Ba/F3-MerTK) (Homo sapiens)
Recorded result: < 6.00
--
Compound structure string: CCc1cccc(-c2ccc(C(=O)N3CC[C@@H](NC(=O)c4cc(-c5cnn(C)c5)cnc4N)C3)cc2)c1
Measured on: BCR fusion to kinase domain of MerTK (Ba/F3-MerTK) (Homo sapiens)
Recorded result: 6.30 to 7.00
--
Compound structure string: Cn1cc(-c2cnc(N)c(C(=O)N[C@@H]3CCN(C(=O)c4ccc(-c5ccc(Oc6ccc(CN)cc6)cc5)cc4)C3)c2)cn1
Measured on: BCR fusion to kinase domain of MerTK (Ba/F3-MerTK) (Homo sapiens)
Recorded result: 6.00 to 6.30
--
Compound structure string: Cn1cc(-c2cnc(N)c(C(=O)NC[C@@H]3CCCN3C(=O)c3cccc(-c4ccccc4)c3)c2)cn1
Measured on: BCR fusion to kinase domain of MerTK (Ba/F3-MerTK) (Homo sapiens)
Recorded result: < 6.00
--
Compound structure string: Nc1ncc(-c2ccc(C(=O)N3CCOCC3)cc2)cc1C(=O)N[C@@H]1CCN(C(=O)c2ccc(-c3ccccc3Cl)cc2)C1
Measured on: BCR fusion to kinase domain of MerTK (Ba/F3-MerTK) (Homo sapiens)
Recorded result: < 6.00
--
Compound structure string: Cn1cc(-c2cnc(N)c(C(=O)N[C@@H]3CCN(C(=O)c4ccc(-c5ccc(Oc6ccnc(Cl)c6)cc5)cc4)C3)c2)cn1
Measured on: BCR fusion to kinase domain of MerTK (Ba/F3-MerTK) (Homo sapiens)
Recorded result: 6.00 to 6.30
--
Compound structure string: Cn1cc(-c2cnc(N)c(C(=O)N[C@@H]3CCN(C(=O)c4ccc5cc(C(=O)N6CCN(CCO)CC6)ccc5c4)C3)c2)cn1
Measured on: BCR fusion to kinase domain of MerTK (Ba/F3-MerTK) (Homo sapiens)
Recorded result: < 6.00
--
Compound structure string: CN1CCC(N(C)c2ccc3cc(C(=O)N4CC[C@@H](NC(=O)c5cc(-c6cnn(C)c6)cnc5N)C4)ccc3c2)CC1
Measured on: BCR fusion to kinase domain of MerTK (Ba/F3-MerTK) (Homo sapiens)
Recorded result: 6.30 to 7.00
--
Compound structure string: CN(C)C(=O)c1ccc(Oc2ccc(-c3ccc(C(=O)N4CC[C@@H](NC(=O)c5cc(-c6cnn(C)c6)cnc5N)C4)cc3)cc2)cc1
Measured on: BCR fusion to kinase domain of MerTK (Ba/F3-MerTK) (Homo sapiens)
Recorded result: < 6.00
--
Compound structure string: Cn1cc(-c2cnc(N)c(C(=O)N[C@@H]3CCN(C(=O)c4ccc(Oc5cccc([N+](=O)[O-])c5)cc4)C3)c2)cn1
Measured on: BCR fusion to kinase domain of MerTK (Ba/F3-MerTK) (Homo sapiens)
Recorded result: < 6.00
--
Compound structure string: Cn1cc(-c2cnc(N)c(C(=O)N[C@@H]3CCN(C(=O)c4ccc(-c5ccccc5F)cc4)C3)c2)cn1
Measured on: BCR fusion to kinase domain of MerTK (Ba/F3-MerTK) (Homo sapiens)
Recorded result: < 6.00

---

Measured on: human c-MER catalytic domain (Homo sapiens (Human), UniProt Q12866)
Sequence (Q12866 587-858): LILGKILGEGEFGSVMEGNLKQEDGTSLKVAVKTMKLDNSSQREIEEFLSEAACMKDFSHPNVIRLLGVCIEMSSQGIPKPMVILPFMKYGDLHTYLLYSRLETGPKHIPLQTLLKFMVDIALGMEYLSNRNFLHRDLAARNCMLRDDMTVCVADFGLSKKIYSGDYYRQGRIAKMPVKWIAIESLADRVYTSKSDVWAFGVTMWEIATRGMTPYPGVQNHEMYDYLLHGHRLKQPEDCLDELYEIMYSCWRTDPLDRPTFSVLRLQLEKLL
pIC50: −log10 of the molar value.
Measured pIC50 of individual entries

Molecule: CC(c1ccccc1Cl)N1CC[C@@H](NC(=O)c2cc(-c3cnn(C4CCNCC4)c3)cnc2N)C1 (stereo partly shown) [Example 148]
pIC50: 7.00 to 8.00
--
Molecule: Cn1cc(-c2cnc(N)c(C(=O)N[C@@H]3CCN(C(=O)c4ccc(-c5ccc(OCC6CCNCC6)cc5)cc4)C3)c2)cn1 [Example 550]
pIC50: 7.00 to 8.00
--
Molecule: Cn1cc(-c2cnc(N)c(C(=O)N[C@@H]3CCN(C(=O)Oc4cccc(-c5cnn(Cc6ccccc6)c5)c4)C3)c2)cn1 [Example 283]
pIC50: 6.00 to 7.00
--
Molecule: Cn1cc(-c2cnc(N)c(C(=O)N[C@@H]3CCN(C(=O)c4ccc(-c5c(F)cccc5F)cc4)C3)c2)cn1 [Example 364]
pIC50: 7.00 to 8.00
--
Molecule: Cn1cc(-c2cnc(N)c(C(=O)N[C@@H]3CCN(C(=O)c4ccc5[nH]c6c(c5c4)CCC6)C3)c2)cn1 [Example 503]
pIC50: < 6.00
--
Molecule: CN1CCN(Cc2ccc(-c3ccc(NC(=O)N4CC[C@@H](NC(=O)c5cc(-c6cnn(C)c6)cnc5N)C4)cc3)cc2)CC1 [Example 273]
pIC50: < 6.00
--
Molecule: Cn1cc(-c2cnc(N)c(C(=O)N[C@@H]3CCN(C(=O)Oc4cccc(OCC5CCC(N)CC5)c4)C3)c2)cn1 (stereo partly shown) [Example 305]
pIC50: 6.00 to 7.00

---

// IC50 collected for human MER (528-end) (Homo sapiens (Human), UniProt Q12866)

Compound structure string: Cn1cc(-c2cnc(N)c(C(=O)N[C@@H]3CCN(C(=O)Nc4cccc(-c5cccc(N)c5)c4)C3)c2)cn1
IC50: 100 to 1000 nM
//
Compound structure string: Cn1cc(-c2cnc(N)c(C(=O)N[C@@H]3CCN(C(=O)c4ccc(OCc5cccc([N+](=O)[O-])c5)cc4)C3)c2)cn1
IC50: 100 to 1000 nM
//
Compound structure string: Cn1cc(-c2cnc(N)c(C(=O)N[C@@H]3CCN(C(=O)N[C@@H]4CCCC[C@H]4O)C3)c2)cn1
IC50: > 1000 nM
//
Compound structure string: Cn1cc(-c2cnc(N)c(C(=O)N[C@@H]3CCN(C(=O)c4cc5ccccc5o4)C3)c2)cn1
IC50: > 1000 nM

---

Below are IC50 values measured for human MER (528-end) (Homo sapiens (Human)).
Measured quantity: IC50

Molecule: CN1CCC(COc2ccc3cc(C(=O)N4CC[C@@H](NC(=O)c5cc(-c6cnn(C)c6)cnc5N)C4)ccc3c2)CC1
Measured quantity: IC50
Recorded result: 100 to 1000 nM

Molecule: Cc1ccc(C(=O)N2CC[C@@H](NC(=O)c3cc(-c4cnn(C)c4)cnc3N)C2)cc1-c1ccccc1
Measured quantity: IC50
Recorded result: > 1000 nM

Molecule: Cn1cc(-c2cnc(N)c(C(=O)N[C@@H]3CCN(C(=O)Oc4ccc5ccc(OCCO)cc5c4)C3)c2)cn1
Measured quantity: IC50
Recorded result: 100 to 1000 nM

Molecule: Nc1ncc(-c2cnn(Cc3cccnc3)c2)cc1C(=O)N[C@@H]1CCN(C(=O)c2ccc(-c3ccc(F)cc3Cl)cc2)C1
Measured quantity: IC50
Recorded result: 10 to 100 nM

Molecule: CC(C)c1cccc(-c2ccc(C(=O)N3CC[C@@H](NC(=O)c4cc(-c5cnn(C)c5)cnc4N)C3)cc2)c1
Measured quantity: IC50
Recorded result: 100 to 1000 nM

Molecule: Cn1cc(-c2cnc(N)c(C(=O)N[C@@H]3CCN(C(=O)c4cccc5c(-c6ccc(CN7CCC[C@@H]7CO)cc6)cccc45)C3)c2)cn1
Measured quantity: IC50
Recorded result: > 1000 nM

Molecule: COC(=O)[C@@H]1C[C@H](NC(=O)c2cc(-c3cnn(C)c3)cnc2N)CN1C(=O)c1ccc(-c2ccccc2)cc1
Measured quantity: IC50
Recorded result: > 1000 nM

Molecule: Nc1ncc(-c2cccnc2)cc1C(=O)N[C@@H]1CCN(C(=O)c2ccc(-c3ccccc3)cc2)C1
Measured quantity: IC50
Recorded result: 10 to 100 nM

Molecule: Cn1cc(-c2cnc(N)c(C(=O)N[C@@H]3CCN(C(=O)Oc4cccc(-c5cccc(CN6CC[C@H](N)C6)c5)c4)C3)c2)cn1
Measured quantity: IC50
Recorded result: > 1000 nM

Molecule: Cn1cc(-c2cnc(N)c(C(=O)N[C@@H]3CCN(c4nc5ccccc5[nH]4)C3)c2)cn1
Measured quantity: IC50
Recorded result: > 1000 nM

Molecule: Cn1cc(-c2cnc(N)c(C(=O)N[C@@H]3CCN(C(=O)Oc4cccc(-c5ccc(CNCCCO)cc5)c4)C3)c2)cn1
Measured quantity: IC50
Recorded result: 100 to 1000 nM

Molecule: Cn1cc(-c2cnc(N)c(C(=O)N[C@@H]3CCN(C(=O)c4ccc(/C=C/C5CCNCC5)cc4)C3)c2)cn1
Measured quantity: IC50
Recorded result: > 1000 nM

Molecule: Cn1cc(-c2cnc(N)c(C(=O)N[C@@H]3CCN(C(=O)Oc4cccc(-c5ccc(CN6CCC[C@@H](N)C6)cc5)c4)C3)c2)cn1
Measured quantity: IC50
Recorded result: 100 to 1000 nM

Molecule: Cn1cc(-c2cnc(N)c(C(=O)N[C@@H]3CCN(C(=O)Oc4cccc(-c5cncc6ccccc56)c4)C3)c2)cn1
Measured quantity: IC50
Recorded result: 10 to 100 nM

Molecule: Cn1cc(-c2cnc(N)c(C(=O)N[C@@H]3CCN(C(=O)Oc4ccccc4CO)C3)c2)cn1
Measured quantity: IC50
Recorded result: > 1000 nM

Molecule: Cn1cc(-c2cnc(N)c(C(=O)N[C@@H]3CCN(C(=O)c4ccc(Oc5ccc([N+](=O)[O-])cc5)cc4)C3)c2)cn1
Measured quantity: IC50
Recorded result: 100 to 1000 nM

Molecule: Cc1nn(C)cc1-c1ccc(C(=O)N2CC[C@@H](NC(=O)c3cc(-c4cnn(C)c4)cnc3N)C2)cc1
Measured quantity: IC50
Recorded result: 100 to 1000 nM

Molecule: Cc1cc(-c2ccc(CN3CCN(C)CC3)cc2)ccc1C(=O)N1CC[C@@H](NC(=O)c2cc(-c3cnn(C)c3)cnc2N)C1
Measured quantity: IC50
Recorded result: > 1000 nM

Molecule: CN1CCN(Cc2ccc(-c3cccc(OC(=O)N4CC[C@@H](NC(=O)c5cc(-c6cnn(C)c6)cnc5N)C4)c3)cc2)CC1
Measured quantity: IC50
Recorded result: 100 to 1000 nM

Molecule: Nc1ncc(Br)cc1C(=O)N[C@@H]1CCN(C(=O)Oc2cccc(-c3ccccc3)c2)C1
Measured quantity: IC50
Recorded result: > 1000 nM

Molecule: Cn1cc(-c2cnc(N)c(C(=O)N[C@@H]3CCN(C(=O)c4ccc(-c5cccc(CN6CCN(CCO)CC6)c5)cc4)C3)c2)cn1
Measured quantity: IC50
Recorded result: 100 to 1000 nM

Molecule: Cn1cc(-c2cnc(N)c(C(=O)NC[C@@H]3CCN(C(=O)c4ccc(-c5ccccc5)cc4)C3)c2)cn1
Measured quantity: IC50
Recorded result: > 1000 nM

Molecule: Cc1sc(-c2ccc(C(=O)N3CC[C@@H](NC(=O)c4cc(-c5cnn(C)c5)cnc4N)C3)cc2)c(C)c1Br
Measured quantity: IC50
Recorded result: 100 to 1000 nM

Molecule: CCNc1cc(OC(=O)N2CC[C@@H](NC(=O)c3cc(-c4cnn(C)c4)cnc3N)C2)ccc1C
Measured quantity: IC50
Recorded result: > 1000 nM

Molecule: Cn1cc(-c2cnc(N)c(C(=O)N[C@@H]3CCN(C(=O)OC4CCCC(c5ccccc5)C4)C3)c2)cn1 (stereo partly drawn)
Measured quantity: IC50
Recorded result: > 1000 nM

Molecule: Cn1cc(-c2cnc(N)c(C(=O)N[C@@H]3CCN(C(=O)Oc4cccc(-c5ccc(CNC6CNC6)cc5)c4)C3)c2)cn1
Measured quantity: IC50
Recorded result: 100 to 1000 nM

Molecule: Cn1cc(-c2cnc(N)c(C(=O)N[C@@H]3CCN(C(=O)c4nc5ccccc5[nH]4)C3)c2)cn1
Measured quantity: IC50
Recorded result: > 1000 nM
